study.system: T1, in vitro translated PKNN2 (Homo sapiens, UniProt Q16512)
T1 construct: made in house; host or cells: in vitro translation in rabbit reticulocyte lysate (Promega)
T1 sequence (Q16512 1-474): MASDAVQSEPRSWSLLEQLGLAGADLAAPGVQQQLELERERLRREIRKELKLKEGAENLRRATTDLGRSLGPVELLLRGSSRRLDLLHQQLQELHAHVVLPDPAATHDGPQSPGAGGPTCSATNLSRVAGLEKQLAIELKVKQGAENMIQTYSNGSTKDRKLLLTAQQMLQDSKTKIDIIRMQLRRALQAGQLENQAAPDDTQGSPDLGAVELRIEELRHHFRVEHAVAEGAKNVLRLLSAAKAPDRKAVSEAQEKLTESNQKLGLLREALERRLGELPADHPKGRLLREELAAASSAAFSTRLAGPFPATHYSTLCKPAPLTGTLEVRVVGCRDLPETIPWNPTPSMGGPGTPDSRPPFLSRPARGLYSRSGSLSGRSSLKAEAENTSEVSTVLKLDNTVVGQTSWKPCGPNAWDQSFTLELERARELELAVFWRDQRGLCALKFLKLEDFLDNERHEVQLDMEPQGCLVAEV
assay: In vitro binding of GST-HuActSkl fragments to PKNN2
condition.label: resistant to 0.5% Triton X-100/0.5 M NaCl wash
outcome.measure: binding of in vitro translated PKNN2 to the fragment

The molecule identified as HuActSkl (653-837): human skeletal muscle type α-actinin fragment, GST fusion (protein, left off: a dimerising Fc or GST, human skeletal muscle type α-actinin fragment, GST fusion) IQNKMEEIARSSIQITGALEDQMNQLKQYEHNIINYKNNIDKLEGDHQLIQEALVFDNKHTNYTMEHIRVGWELLLTTIARTINEVETQILTRDAKGITQEQMNEFRASFNHFDRRKNGLMDHEDFRACLISMGYDLGEAEFARIMTLVDPNGQGTVTFQSFIDFMTRETADTDTAEQVIASFRI registered its binding of in vitro translated PKNN2 to the fragment at strongly bound

The molecule identified as HuActSkl (604-719): human skeletal muscle type α-actinin fragment, GST fusion (protein, left off: a dimerising Fc or GST, human skeletal muscle type α-actinin fragment, GST fusion) MDELRTKWDKVKQLVPIRDQSLQEELARQHANERLRRQFAAQANAIGPWIQNKMEEIARSSIQITGALEDQMNQLKQYEHNIINYKNNIDKLEGDHQLIQEALVFDNKHTNYTMEH registered its binding of in vitro translated PKNN2 to the fragment at not

The molecule identified as HuActSkl (486-607): human skeletal muscle type α-actinin fragment, spectrin-like repeat 3, GST fusion (protein, UniProt P35609 486-607, looked up, fragment, GST fusion, human skeletal muscle type α-actinin fragment, spectrin-like repeat 3, GST fusion) ICDQWDRLGTLTQKRREALERMEKLLETIDQLHLEFAKRAAPFNNWMEGAMEDLQDMFIVHSIEEIQSLITAHEQFKATLPEADGERQSIMAIQNEVEKVIQSYNIRISSSNPYSTVTMDEL registered its binding of in vitro translated PKNN2 to the fragment at strongly bound

The molecule identified as HuActSkl (423-653): human skeletal muscle type α-actinin fragment, GST fusion (protein, left off: a dimerising Fc or GST, human skeletal muscle type α-actinin fragment, GST fusion) ILLQKDYESASLTEVRALLRKHEAFESDLAAHQDRVEQIAAIAQELNELDYHDAVNVNDRCQKICDQWDRLGTLTQKRREALERMEKLLETIDQLHLEFAKRAAPFNNWMEGAMEDLQDMFIVHSIEEIQSLITAHEQFKATLPEADGERQSIMAIQNEVEKVIQSYNIRISSSNPYSTVTMDELRTKWDKVKQLVPIRDQSLQEELARQHANERLRRQFAAQANAIGPWI registered its binding of in vitro translated PKNN2 to the fragment at strongly bound

The reported measurements were obtained from patent US6660837B1.
